This collection of values is drawn from paper PMC13490399.

target: NanoLuc–VHL (Homo sapiens, UniProt P40337); test: cell-based; conditions: IC50, VHL probe displacement (BRET), live (non-permeabilized) MCF-7 cells, 4 h
Sequence (P40337 whole entry): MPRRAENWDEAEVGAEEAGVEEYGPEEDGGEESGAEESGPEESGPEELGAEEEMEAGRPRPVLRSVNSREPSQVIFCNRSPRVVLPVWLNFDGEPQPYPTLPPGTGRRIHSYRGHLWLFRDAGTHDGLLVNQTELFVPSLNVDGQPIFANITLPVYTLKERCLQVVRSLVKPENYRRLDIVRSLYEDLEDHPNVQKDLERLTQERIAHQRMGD
Sequence (Q15370 whole entry partner): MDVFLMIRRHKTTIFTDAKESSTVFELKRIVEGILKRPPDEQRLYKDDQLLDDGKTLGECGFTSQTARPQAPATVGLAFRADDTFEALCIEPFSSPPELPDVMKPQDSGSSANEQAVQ
Sequence (Q15369 whole entry partner): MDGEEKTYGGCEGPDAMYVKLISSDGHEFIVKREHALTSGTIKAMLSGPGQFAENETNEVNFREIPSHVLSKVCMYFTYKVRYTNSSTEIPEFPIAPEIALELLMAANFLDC
pIC50: −log10 of the molar value.
property.measured: pIC50

Identify the measured pIC50 of C=CC(C)(C)OCC1OC(OC2C3=C(C(C)CNC(=O)CCC(=O)NC(C(=O)N4CC(O)CC4C(=O)NCc4ccc(-c5scnc5C)cc4)C(C)(C)C)CC(O)C3(C)C=C3C(COC)CCC3C(C)C2O)C(O)C(O)C1O (stereo not shown) for NanoLuc–VHL (Homo sapiens, UniProt P40337).
< 5.00
